- METHOD SUMMARY: Cytotoxicity Determination
- Format: cell-based
- STUDY CONDITIONS: human, HEp-2 cells, without addition of virus, CCK-8 readout, bins (Table 4: greater than 100 μM; Table 5: equal to or less than 100 μM and greater than 10 μM), read-out: 50% cytotoxicity concentration (CC50)
- Procedure: In order to determine the compound cytotoxicity, in parallel, each of the compounds is applied to duplicate wells in a 384-well cell plate at serial final concentrations starting from 100 μM using ½ stepwise dilutions for 7 points without addition of virus. Incubate the cells at 37° C., 5% CO2 for 5 days. Add 6 μl CCK-8 into each well and incubate in a CO2 incubator at 37° C. for 3-4 hours. […]
Some compounds, each annotated with its measured CC50 at 5 days.

{"COMPOUND": "COc1ccc(C(=O)NCC(=O)N/N=C/c2c(C)n(C)c3ccccc23)cc1OC [Compound 486]", "CC50 at 5 days": "10 to 100 µM"}
{"COMPOUND": "COc1ccc(C(=O)N(C)CC(=O)N/N=C(\\C)c2csc3ccccc23)cc1OC [Compound 242]", "CC50 at 5 days": "> 100 µM"}
{"COMPOUND": "COc1cc(C(=O)NCC(=O)c2cccc(-c3csc4c(F)cccc34)n2)ccc1OC1CC(O)C1 (stereo not shown) [Compound 1256]", "CC50 at 5 days": "10 to 100 µM"}
{"COMPOUND": "COc1ccc2scc(/C(C)=N/NC(=O)CNC(=O)c3ccc(OC)c(OC)c3)c2c1 [Compound 400-9]", "CC50 at 5 days": "10 to 100 µM"}
{"COMPOUND": "CCCN(/N=C/c1csc2c(F)cccc12)C(=O)CNC(=O)c1ccc(OCCO)c(OC)c1 [Compound 2302]", "CC50 at 5 days": "10 to 100 µM"}
{"COMPOUND": "COc1cc(C(=O)NCC(=O)c2ccc(OC)c(-c3ccc(F)c(O)c3)n2)ccc1OCCO [Compound 1328]", "CC50 at 5 days": "> 100 µM"}
{"COMPOUND": "C=C(C)c1cc(C(=O)CNC(=O)c2ccc(OC)c(OC)c2)nc(-c2csc3c(F)cccc23)c1 [Compound 1237]", "CC50 at 5 days": "10 to 100 µM"}
{"COMPOUND": "COc1ccc(C(=O)NCC(=O)c2cc(=O)cc(-c3csc4c(F)cccc34)[nH]2)cc1OC [Compound 1222]", "CC50 at 5 days": "> 100 µM"}
{"COMPOUND": "COCC/C(=N\\NC(=O)CNC(=O)c1ccc(OC)c(OC)c1O)c1csc2c(F)cccc12 [Compound 300]", "CC50 at 5 days": "10 to 100 µM"}
{"COMPOUND": "CCCCOc1ccc(C(=O)NCC(=O)N/N=C(\\C)c2csc3ccccc23)cc1OC [Compound 483]", "CC50 at 5 days": "10 to 100 µM"}
{"COMPOUND": "COc1cc(C(=O)NCC(=O)c2cn(C(C)C)cc(-c3csc4c(F)cccc34)c2=O)ccc1OCCO [Compound 2200]", "CC50 at 5 days": "> 100 µM"}
{"COMPOUND": "COc1ccc(C(=O)NCC(=O)N/N=C(\\C)c2c(OC)sc3ccccc23)cc1OC [Compound 400-19]", "CC50 at 5 days": "10 to 100 µM"}
{"COMPOUND": "CCOc1ccc(C(=O)NCC(=O)c2ccc(OC)c(-c3ccc(F)c(Cl)c3)n2)cc1OC [Compound 2641]", "CC50 at 5 days": "> 100 µM"}
{"COMPOUND": "COCC/C(=N/NC(=O)CNC(=O)c1ccc(OCCO)c(OC)c1)c1csc2c(F)cccc12 [Compound 603B]", "CC50 at 5 days": "> 100 µM"}
{"COMPOUND": "CCOc1ccc(C(=O)NCC(=O)NCC(=O)c2csc3c(F)cccc23)cc1OC [Compound 910]", "CC50 at 5 days": "10 to 100 µM"}
{"COMPOUND": "COCC/C(=N\\NC(=O)CNC(=O)c1ccc(OC2COC2)c(OC)c1)c1csc2c(F)cccc12 [Compound 514A]", "CC50 at 5 days": "> 100 µM"}

---

- METHOD SUMMARY: Cytotoxicity Determination
- Format: cell-based
- STUDY CONDITIONS: human, HEp-2 cells, without addition of virus, CCK-8 readout, bins (Table 4: greater than 100 μM; Table 5: equal to or less than 100 μM and greater than 10 μM), read-out: 50% cytotoxicity concentration (CC50)
CC50 at 5 days values, listed per item

{"SMILES REPR": "O=C(NCC(=O)c1cccc(-c2csc3c(F)cccc23)n1)c1ccc(OCCO)c(O)c1", "CC50 at 5 days": "10 to 100 µM"}
{"SMILES REPR": "CCCC/C(=N\\NC(=O)CNC(=O)c1ccc(OC(C)C)c(OC)c1)c1csc2ccccc12", "CC50 at 5 days": "> 100 µM"}
{"SMILES REPR": "COc1cc(C(=O)NCC(=O)N/N=C(\\C)c2csc3ccccc23)ccc1OC(C)C", "CC50 at 5 days": "> 100 µM"}
{"SMILES REPR": "COc1cc(C(=O)NCC(=O)c2ccc(OC)c(-c3ccc(F)c(Br)c3)n2)ccc1OCc1cnc[nH]1", "CC50 at 5 days": "10 to 100 µM"}

---

- METHOD SUMMARY: Cytotoxicity Determination
- Format: cell-based
- STUDY CONDITIONS: human, HEp-2 cells, without addition of virus, CCK-8 readout, bins (Table 4: greater than 100 μM; Table 5: equal to or less than 100 μM and greater than 10 μM), read-out: 50% cytotoxicity concentration (CC50)
PROPERTY MEASURED: CC50 at 5 days

{"COMPOUND": "COc1ccc(C(=O)NCC(=O)c2ccc(OC)c(-c3ccc(N4CCOCC4)cc3)n2)cc1OC [Compound 1506]", "VALUE OBSERVED": "10 to 100 µM"}
{"COMPOUND": "COc1ccc(S(=O)(=O)NCC(=O)N/N=C(\\C)c2csc3ccccc23)cc1OC [Compound 240]", "VALUE OBSERVED": "10 to 100 µM"}
{"COMPOUND": "COc1ccc(C(=O)NC(CCC(=O)O)C(=O)c2ccc(OC)c(-c3csc4c(F)cccc34)n2)cc1OC (centres unmarked) [Compound 1821]", "VALUE OBSERVED": "10 to 100 µM"}
{"COMPOUND": "COc1ccc(C(=O)NCC(=O)N/N=C(\\C)c2csc3cc(F)ccc23)cc1OC [Compound 400-22]", "VALUE OBSERVED": "10 to 100 µM"}
{"COMPOUND": "COc1ccc(C(=O)NCC(=O)NN=C(c2ccccc2)c2ccccc2)cc1OC [Compound 440]", "VALUE OBSERVED": "> 100 µM"}
{"COMPOUND": "COCc1ccc(C(=O)NCC(=O)c2ccc(OC)c(-c3ccc(F)c(Cl)c3)n2)cc1OC [Compound 1323]", "VALUE OBSERVED": "10 to 100 µM"}
{"COMPOUND": "C/C(=N\\NC(=O)CNC(=O)c1ccc2c(c1)OC(F)(F)O2)c1csc2ccccc12 [Compound 474]", "VALUE OBSERVED": "10 to 100 µM"}
{"COMPOUND": "COc1cc(C(=O)N[C@@H](CCO)C(=O)c2ccc(OC)c(-c3csc4c(F)cccc34)n2)ccc1OCCO [Compound 1803]", "VALUE OBSERVED": "10 to 100 µM"}

---

- METHOD SUMMARY: Cytotoxicity Determination
- Type: cell-based
- STUDY CONDITIONS: human, HEp-2 cells, without addition of virus, CCK-8 readout, bins (Table 4: greater than 100 μM; Table 5: equal to or less than 100 μM and greater than 10 μM), read-out: 50% cytotoxicity concentration (CC50)
- Experimental: In order to determine the compound cytotoxicity, in parallel, each of the compounds is applied to duplicate wells in a 384-well cell plate at serial final concentrations starting from 100 μM using ½ stepwise dilutions for 7 points without addition of virus. Incubate the cells at 37° C., 5% CO2 for 5 days. Add 6 μl CCK-8 into each well and incubate in a CO2 incubator at 37° C. for 3-4 hours. […]

{"SMILES REPR": "COc1ccc(C(=O)NCC(=O)N/N=C(\\C)c2csc3c(Cl)cccc23)cc1OC", "CC50 at 5 days": "10 to 100 µM"}
{"SMILES REPR": "COc1ccc(C(=O)NCC(=O)N(C)/N=C/c2c(C#N)sc3c(F)cccc23)cc1OCCO", "CC50 at 5 days": "> 100 µM"}
{"SMILES REPR": "COc1ccc(C(=O)NCC(=O)N/N=C(\\C)c2noc3ccccc23)cc1OC", "CC50 at 5 days": "> 100 µM"}
{"SMILES REPR": "COc1ccc(C(=O)NCC(=O)c2ccc3c(n2)-c2c(sc4c(F)cccc24)CO3)cc1OC", "CC50 at 5 days": "10 to 100 µM"}
{"SMILES REPR": "CNC(=O)c1ccc(-c2nc(C(=O)CNC(=O)c3ccc(OC)c(OC)c3)ccc2OC)cc1", "CC50 at 5 days": "> 100 µM"}
{"SMILES REPR": "COc1cc(C(=O)NCC(=O)c2ccc(OC)c(-c3ccc(F)c(Cl)c3)n2)ccc1-n1cccn1", "CC50 at 5 days": "10 to 100 µM"}
{"SMILES REPR": "COc1cc(C(=O)NCC(=O)c2ccc(OC)c(-c3ccc(Cl)cc3)n2)ccc1OCCO", "CC50 at 5 days": "10 to 100 µM"}
{"SMILES REPR": "CCCC/C(=N/NC(=O)CNC(=O)c1ccc(OCCO)c(OC)c1)c1csc2c(F)cccc12", "CC50 at 5 days": "> 100 µM"}
{"SMILES REPR": "CCc1cc(C(=O)CNC(=O)c2ccc(OCCO)c(OC)c2)nc(-c2csc3c(F)cccc23)c1", "CC50 at 5 days": "> 100 µM"}
{"SMILES REPR": "COc1ccc(C(=O)NCC(=O)c2ccc(OC)c(-c3ccnc(F)c3)n2)cc1OC", "CC50 at 5 days": "> 100 µM"}
{"SMILES REPR": "COc1cc(C(=O)NCC(=O)c2ccc(OC)c(-c3c(Cl)sc4c(F)cccc34)n2)ccc1OCCO", "CC50 at 5 days": "> 100 µM"}
{"SMILES REPR": "COc1cc(NCCC(=O)N(C)/N=C/c2csc3c(F)cccc23)ccc1OCCO", "CC50 at 5 days": "10 to 100 µM"}
{"SMILES REPR": "COc1cc(C(=O)NCC(=O)N/N=C(\\C)c2csc3ccccc23)ccc1OCCO", "CC50 at 5 days": "> 100 µM"}
{"SMILES REPR": "COc1ccc(C(=O)NCC(=O)N/N=C(\\CC#N)c2csc3ccccc23)cc1OC", "CC50 at 5 days": "> 100 µM"}
{"SMILES REPR": "COc1ccc(C(=O)NCC(=O)c2nc(-c3csc4c(F)cccc34)n[nH]2)cc1OC", "CC50 at 5 days": "10 to 100 µM"}
{"SMILES REPR": "CCOc1ccc(C(=O)NCC(=O)N(C)/N=C/c2csc3c(F)cccc23)cc1OC", "CC50 at 5 days": "> 100 µM"}
